- System: HL-60
- ASSAY_METHOD_TEXT: NCI tumour cell line growth inhibition, 48 h
The source made the active and inactive calls. Cut-off read from the data, not from the text of the source: active = GI50 up to about 1.1 µM and inactive = higher.
Assign a class; possible classes are active, inactive

Name the outcome recorded for "C[N+]1(C)C/C(=C\c2ccccc2)C(=O)/C(=C/c2ccccc2)C1" in the assay. inactive

What would you report for "COc1cc(Br)c(/C=N\c2cccc3cc(OC)c(OC)cc23)cc1OC" ? inactive

Lookup "C/C(=N/c1[nH]c(=O)cc2c1C(=O)CC2)N(C)C" inactive

# iterate: "COC(=O)CCC(=O)Nc1ccc(Cl)cc1C" active

Would you mind doing COc1cc(-c2c3c(cc4c2OCO4)[C@@H](Nc2ccc4c(c2)Cc2cc(N[C@@H]5c6cc7c(cc6C(c6cc(OC)c(O)c(OC)c6)[C@H]6C(=O)OC[C@H]56)OCO7)ccc2-4)[C@H]2COC(=O)[C@@H]2C3)cc(OC)c1O (stereo partly specified) as well? inactive

Consider next the compound "O=C(O)c1oc2ccc([N+](=O)[O-])c3c2c1CCC3" in the same way. inactive

Repeat with "CCN(CC)Cc1ccccc1CC(=O)N1c2ccccc2C(=O)Nc2cccnc21" inactive

Moving on to the next compound: "Cc1ccc(NC(=O)CCc2nnc(S)[nH]2)cc1" inactive

Then what about the compound Nc1nc(N)c2nc(CNc3ccc(C(=O)NC(CCC(=O)O)C(=O)O)cc3F)cnc2n1 (stereo unspecified) ? active

Now the same for "CCOC(=O)CC/C(=N/Nc1ccc(Cl)cc1[N+](=O)[O-])C(=O)OCC" inactive

What about this compound? Cc1cc(O)c(C=O)c(C)c1CCC1(C)C=Cc2cc(O)ccc2O1 (stereo unspecified) inactive

Request: "CC1=NN2CCC(=O)N=C2S1" inactive

Also check C[N+]1(C)C(c2ccccc2)C(=O)O[B@-]1(F)c1ccccc1 (stereo partly specified) inactive

Please give the result for O=C1c2ccccc2C2(Br)C(=O)c3ccccc3C12 (stereo unspecified) too. inactive

# iterate: "COC(=O)[C@H](COC(C)(C)C)NC(=O)N[C@H](C)c1ccccc1" inactive

// repeat for "N=C(N)SCCc1cn2ccccc2n1" and report inactive

Please do the same for "COc1ccc(OC)c(/C=C(/C#N)c2ccccc2)c1" as well. inactive

Moving on to the next compound: "CCCCC/C(C=O)=C\c1ccccc1" inactive

Follow-up item: "COC(=O)Cc1ccc2c(c1)Sc1ccc(CC(=O)OC)cc1N2C" inactive

Next: CC(C)C1CC(O)O[C@@H]([C@@H](C)[C@H]2CC(=O)[C@@H]3[C@@H]4[C@@H](O)[C@H](O)[C@H]5[C@@H](O)[C@H](O)CC[C@]5(C)[C@H]4CC[C@]23C)C1 (stereo partly specified) inactive

Entry to check: COc1ccc(C2c3cc4c(cc3OC3(OC)COC(=O)C23)OCO4)c(OC)c1 (stereo unspecified) inactive
